Experimental target: T1, Human CXCR2 (human, UniProt P25025 1-360)
T1 construct: Some cell lines carry an N-terminal 3xHA tag; also called hCXCR2; huCXCR2
T1 sequence: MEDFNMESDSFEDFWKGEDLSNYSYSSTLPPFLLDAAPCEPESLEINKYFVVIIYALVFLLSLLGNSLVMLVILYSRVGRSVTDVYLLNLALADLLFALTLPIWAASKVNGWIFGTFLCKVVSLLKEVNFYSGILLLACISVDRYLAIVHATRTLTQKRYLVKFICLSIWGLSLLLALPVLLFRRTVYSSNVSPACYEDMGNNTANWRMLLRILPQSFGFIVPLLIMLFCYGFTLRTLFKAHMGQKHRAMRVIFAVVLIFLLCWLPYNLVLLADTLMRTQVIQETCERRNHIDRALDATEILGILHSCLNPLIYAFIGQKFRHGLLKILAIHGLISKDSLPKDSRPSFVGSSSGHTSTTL
Assay remarks: FACS competition vs 3 nM FMAT-Blue Gro-α

- Binder: "54B12 (VHH, Tested as periplasmic extract (pAX50) and as purified His6-tagged protein (pAX100); also called 054B12; not shown: C-terminal c-myc tag and His6 tag coded by the vector) VHH: EVQLVESGGGLVQAGGSLTLSCAVSGSTFRINTMGWYRRAPGKQRELVAARDRGGYINYVDSVKGRFTVSRDNAKPTMYLQMNSLKPEDTAVYYCHAGTQDRTGRNFDRWGQGTQVTVSS"
  % inhibition of max [%]: 35
- Binder: "97A9 (VHH, Tested as periplasmic extract (pAX50) and as purified His6-tagged protein (pAX100); also called 097A09; not shown: C-terminal c-myc tag and His6 tag coded by the vector) VHH: EVQLVESGGGLVQPGGSLRLSCVASGSIVRINTMGWYRQTPGKQRELVADITSGGNINYIDAVKGRFTISRDNTKNTVYLQMNSLKPEDTAVYYCNAEIVVLVGVWTQRARTGNYWGQGTQVTVSS"
  % inhibition of max [%]: 93.9
- Binder: "2B2 (VHH, Tested as periplasmic extract (pAX50) and as purified His6-tagged protein (pAX100); also called 002B02; not shown: C-terminal c-myc tag and His6 tag coded by the vector) VHH: EVQLVESGGELVQPGGSLRLSCAASGSILTINAMGWYRQAPGKQRELVVRRTRGGSTTYQDSVKGRFTISADIAKKTMYLQMNSLKPEDTAVYYCMLDDRGGVYWGQGTQVTVSS"
  % inhibition of max [%]: 42.7
- Binder: "163D2 (VHH, Tested as periplasmic extract (pAX50) and as purified His6-tagged protein (pAX100); also called 163D02; not shown: C-terminal c-myc tag and His6 tag coded by the vector) VHH: EVQLVESGGGLVQAGGSLRLSCAASGRTFSDYAMGWFRQAPGKEREFVAAITWNGGRVFYTASVKGRFTISRDNAKNTMYLQMNSLKPEDTAVYYCAADKDRRTDYLGHPVAYWGQGTQVTVSS"
  % inhibition of max [%]: 96.4
